IC50 listing for selected compounds.
- Tested on: KRas-mediated phosphorylation of ERK in H460 cells
- method-description: Inhibition of KRas-mediated phosphorylation of ERK (Cisbio HTRF pERK), H460 cells
- Format: cell-based
- experimental-setup: Homo sapiens, NCI-H460, HTRF pERK
measurement-type: IC50 (nM)

CCc1c(F)ccc2cc(O)cc(-c3ncc4c(N5CC6CCC(C5)C6(C)O)nc(OC[C@@]56CCCN5C[C@H](F)C6)nc4c3F)c12 (stereo partly drawn) :: 238
CCc1c(F)ccc2cc(O)cc(-c3ncc4c(N5CCC[C@@]6(CCO6)C5)nc(OCC5(CN(C)C)CC5)nc4c3F)c12 :: 348
CCOC[C@@H]1CC[C@]2(COc3nc(N4CCC[C@@](C)(O)C4)c4cnc(-c5cc(O)cc6ccc(F)c(CC)c56)c(F)c4n3)CCCN12 :: 23
CCc1c(F)ccc2cc(O)cc(-c3ncc4c(N5CCC[C@@](C)(O)C5)nc(OC[C@]56CCCN5[C@@H](COC)CC6)nc4c3F)c12 :: 86
CCc1c(F)ccc2cc3[nH]ncc3c(-c3ncc4c(N5CCC[C@]6(C5)NC(=O)NC6=O)nc(OC[C@@]56CCCN5C[C@H](F)C6)nc4c3F)c12 :: 36
CCNC(=O)OC[C@@H]1CC[C@]2(COc3nc(N4CCC[C@@](C)(O)C4)c4cnc(-c5cc(O)cc6ccc(F)c(CC)c56)c(F)c4n3)CCCN12 :: 30
C=C1CN2CCCC2(COc2nc(N3CCCC(C)(O)C3)c3cnc(-c4cc(O)cc5ccc(F)c(CC)c45)c(F)c3n2)C1 (stereo in doubt) :: 3
CCc1c(F)ccc2cc(O)cc(-c3ncc4c(N5CC6CCC(CC(=O)N(C)C)(C6)C5)nc(OC[C@@]56CCCN5C[C@H](F)C6)nc4c3F)c12 (stereo partly drawn) :: 108
CCc1c(F)ccc2cc(O)cc(-c3ncc4c(N5CC6CCC(C5)C6CO)nc(OC[C@@]56CCCN5C[C@H](F)C6)nc4c3F)c12 (stereo partly drawn) :: 80
CCc1c(F)ccc2cc(O)cc(-c3ncc4c(N5C[C@@H]6C[C@H](C5)[C@H](O)C6)nc(OCC56CCCN5C/C(=C\F)C6)nc4c3F)c12 (stereo partly drawn) :: 2
CCc1c(F)ccc2cc(O)cc(-c3ncc4c(N5CCC[C@@](C)(O)C5)nc(OC[C@@]56CCCN5C/C(=C\F)C6)nc4c3F)c12 :: 1
Oc1cc(-c2ncc3c(N4CCOCC5(CCO5)C4)nc(OC[C@@]45CCCN4C[C@H](F)C5)nc3c2F)c2c(Cl)c(F)ccc2c1 (stereo partly drawn) :: 22
